- target-desc: Thyroid hormone receptor beta (Homo sapiens) (UniProt P10828)
- Sequence (P10828 whole entry, looked up): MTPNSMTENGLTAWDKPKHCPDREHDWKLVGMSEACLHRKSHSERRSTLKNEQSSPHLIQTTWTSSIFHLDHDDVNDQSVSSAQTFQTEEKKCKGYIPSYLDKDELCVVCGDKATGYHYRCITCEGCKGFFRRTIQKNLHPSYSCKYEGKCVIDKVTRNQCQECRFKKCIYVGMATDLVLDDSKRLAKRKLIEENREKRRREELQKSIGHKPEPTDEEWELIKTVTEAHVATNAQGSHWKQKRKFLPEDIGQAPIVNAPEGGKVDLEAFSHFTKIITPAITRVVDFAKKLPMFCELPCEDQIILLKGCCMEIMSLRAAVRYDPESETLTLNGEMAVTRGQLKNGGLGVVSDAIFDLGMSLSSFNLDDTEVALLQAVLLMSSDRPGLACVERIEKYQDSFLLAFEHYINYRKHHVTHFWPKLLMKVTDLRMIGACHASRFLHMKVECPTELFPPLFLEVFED
- test-summary: Concentration Response Confirmation Assay for Inhibitors of the Interaction of Thyroid Hormone Receptor and Steroid Receptor Coregulator 2, Fluorescein Fluoroprobe
- condition-description: TRbeta LBD / fluorescein-SRC2 peptide, fluorescence polarization, 5 h; series mostly up to 92.2 µM
Records with an inconclusive call do not appear. Active and inactive are the calls of the source. The call rests on the fitted dose curve; in most records, active means well fitted inhibition curve with a large enough effect; inconclusive means small, poorly fitted or top-dose-only effect, or effect the other way; inactive means flat fitted curve, though single readings scatter.
property: activity, negative = inhibition

| smiles-str | result |
| --- | --- |
| CCCCCCN=CC1=C(O)CC(C)(C)CC1=O | 4.31% [at 0.0112 µM] (inactive) |
| CC(=O)c1cccc(NC(=O)COC(=O)c2ccc(S(C)(=O)=O)c([N+](=O)[O-])c2)c1 | -8.61% [at 11.6 µM] (inactive) |
| CCN(CC)S(=O)(=O)c1cccc(N=NC2=C(O)CCCC2=O)c1 | -3.56% [at 0.0112 µM] (inactive) |

Batch: activity, negative = inhibition for all items listed.
1. Cc1cc(N=Cc2c(O)ccc3ccccc23)no1
2. Cn1c(CCN2CCCCC2)nc2cc(NS(=O)(=O)c3ccc(Cl)cc3)ccc21

Result:
1: 1.5% [at 0.0112 µM] (inactive); 2: -6.74% [at 0.0112 µM] (inactive)
